# PROTOCOL_NOTES: BSK_3C_TissueFactor: BioMAP Diversity Plus: 3C Assay for Tissue Factor Biomarker Activity (AID 2282997)
# CONDITION_LABEL: BioMAP 3C HUVEC, tissue factor biomarker readout; actives raise or lower the signal
Active and inactive are the calls of the source. Rule for the calls: active = hit-call score of the fitted dose curve at least 0.9, where 1 is the maximum; inactive = score below 0.9.
Possible outcomes: 1 for active, 0 for inactive

COMPOUND	QUALITATIVE_LABEL
CC1(C)C(=O)NC(=O)N1CO	0
Cc1c(C)c2c(c(C)c1O)CCC(C)(COc1ccc(CC3SC(=O)NC3=O)cc1)O2 (stereo not drawn)	1
CC(C)(O)c1ccc(CNC(=O)c2cccnc2Oc2ccc(F)cc2)cc1	0
CCCC(=O)O	0
CCCCC(CC)COC(=O)CCCCCCCC(=O)OCC(CC)CCCC (stereo not drawn)	0
O=[Si]=O	0
CC(C)COC(=O)CCCCC(=O)OCC(C)C	0
O=C(O)CC(O)(CC(=O)O)C(=O)O	0
O=NO	0
CCCCCCC(CCCCCCCCCCC(=O)OCC(COC(C)=O)OC(C)=O)OC(C)=O (stereo not drawn)	0
Nc1nc(=S)c2[nH]cnc2[nH]1	0
COc1ccc(OC(F)(F)F)cc1CN[C@H]1CCCN[C@H]1c1ccccc1	1
CC(C)NCC(O)c1ccc(O)c(O)c1 (stereo not drawn)	0

====

# PROTOCOL_NOTES: CCTE_Shafer_MEA_acute_per_network_burst_spike_number_std: CCTE's Neural Acute Assay for Standard Deviation of Number of Spikes in a Network Burst, Shafer Lab (AID 2284020);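 note: fitted for decrease in spike-number SD versus DMSO so actives lower it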
# Experimental: CCTE_Shafer_MEA_acute assay is conducted using Axion Biosystems 48 well microelectrode array (MEA) plates and Maestro recording system. Each well of the MEA plate contains a grid of 16 microelectrodes embedded in the culture surface. Electrically active cells, such as neurons, can be cultured over the electrodes, and electrical activity in these cells can be recorded extracellularly. […]
Calls of active or inactive are those of the source. How the source made its calls: active means hit-call score of the fitted dose curve at least 0.9, where 1 is the maximum; inactive means score below 0.9.
Outcome codes: Y = active, N = inactive

Nc1nc(=S)c2[nH]cnc2[nH]1 N
CC1=C(C)S(=O)(=O)CCS1(=O)=O N
OCC(CO)n1cnc(-c2ccc(F)cc2)c1-c1ccnc(Oc2ccccc2)n1 N
Cc1ccc(C(C)(C)C)c(O)c1 N
Cc1ccc(-c2cc(C(F)(F)F)nn2-c2ccc(S(N)(=O)=O)cc2)cc1 N
CCN(CC)CCOc1ccc(C(=C(Cl)c2ccccc2)c2ccccc2)cc1 N
CC(N)=O N
O=C1OC(c2ccc(O)cc2)(c2ccc(O)cc2)c2ccccc21 Y
O=C(N[C@@H](c1ccccc1)[C@@H]1CCCCN1)c1cccc(C(F)(F)F)c1Cl Y
CN(C)C(=O)NC1(c2ccccc2)CCN(CC[C@@]2(c3ccc(F)c(F)c3)CN(C(=O)c3ccccc3)CCO2)CC1 N
c1ccc2occc2c1 N
CCCC(=O)O N

====

# PROTOCOL_NOTES: BSK_SAg_SRB: Viability Assessment in the BioMAP Diversity Plus: SAg Assay (AID 2283096);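 note: cells read one day after compound addition; hits may be either gain or loss of signal compared with DMSO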
# CONDITION_LABEL: primary human HUVEC with PBMC
Activity calls are given as the source filed them. How the source made its calls: active means hit-call score of the fitted dose curve at least 0.9, where 1 is the maximum; inactive means score below 0.9.
Classes used: active, inactive

COMPOUND	QUALITATIVE_LABEL
CC(C)NCC(O)c1ccc(O)c(O)c1 (configuration not stated)	inactive
O=C(O)CC(O)(CC(=O)O)C(=O)O	inactive
Cc1ccc(-c2cc(C(F)(F)F)nn2-c2ccc(S(N)(=O)=O)cc2)cc1	active
NC1CCCCC1	inactive
CN(C)CCCN1c2ccccc2Sc2ccc(Cl)cc21	active
c1ccc2occc2c1	inactive
Cc1ccc(C(C)(C)C)c(O)c1	inactive
